meta.source: patent US8835632B2

# experiment description: Absorption and fluorescence spectra, extinction coefficient, fluorescence quantum yield
# Format: physicochemical
# recorded conditions: C6H6
Entries and their Emission energy Eem Exp values follow.
assay endpoint: Emission energy Eem Exp (eV)

>>> assay_value("CN1/C(=C/C=C/C=C2/C(=O)c3ccccc3S2(=O)=O)C(C)(C)c2ccccc21 [I-SO, reference compound]")
2.056
>>> assay_value("Cn1c([O-])c(/C=C/C=C/c2cc[n+]3c(c2)C(C)(C)c2ccccc2-3)c(=O)n(C)c1=O [AI-BA]")
1.851
>>> assay_value("CC1(C)c2ccccc2-[n+]2ccc(/C=C/C=C/C3=C(O)c4ccccc4S3(=O)=O)cc21 [AI-SO]")
1.794
>>> assay_value("CCN1C(=O)\\C(=C/C=C/C=C2/N(C)c3ccccc3C2(C)C)C(O)N(CC)C1=S (stereo not shown) [I-TBA, reference compound]")
2.050

----------
# experiment description: Absorption and fluorescence spectra, extinction coefficient, fluorescence quantum yield
# Type: physicochemical
# recorded conditions: Table 15, DMF
assay endpoint: Observed emission λmax

>>> assay_value("C[n+]1ccc(/C=C/C=C/C2=C([O-])c3ccccc3S2(=O)=O)cc1")
"635 nm"
>>> assay_value("C[n+]1ccc(/C=C/C2=C([O-])c3ccccc3S2(=O)=O)cc1")
"534 nm"
>>> assay_value("CC1(C)c2ccccc2-[n+]2ccc(/C=C/C=C/C3=C(O)c4ccccc4S3(=O)=O)cc21")
"673 nm"
>>> assay_value("CC1(C)c2ccccc2-[n+]2ccc(/C=C/C3=C([O-])c4ccccc4S3(=O)=O)cc21")
"567 nm"
>>> assay_value("CN1/C(=C/C=C/C=C2/C(=O)c3ccccc3S2(=O)=O)C(C)(C)c2ccccc21 [I-SO, reference compound]")
"615 nm"
>>> assay_value("Cn1c([O-])c(/C=C/C=C/c2cc[n+]3c(c2)C(C)(C)c2ccccc2-3)c(=O)n(C)c1=O")
"658 nm"
>>> assay_value("CCN1C(=O)\\C(=C/C=C/C=C2/N(C)c3ccccc3C2(C)C)C(O)N(CC)C1=S (stereo not shown) [I-TBA, reference compound]")
"611 nm"

----------
# experiment description: Absorption and fluorescence spectra, extinction coefficient, fluorescence quantum yield
# Format: physicochemical
# recorded conditions: Table 15, C6H6
assay endpoint: Observed emission λmax (nm)

>>> assay_value("CCN1C(=O)\\C(=C/C=C/C=C2/N(C)c3ccccc3C2(C)C)C(O)N(CC)C1=S (stereo not shown) [I-TBA, reference compound]")
605
>>> assay_value("CC1(C)c2ccccc2-[n+]2ccc(/C=C/C=C/C3=C(O)c4ccccc4S3(=O)=O)cc21 [AI-SO]")
691
>>> assay_value("CN1/C(=C/C=C/C=C2/C(=O)c3ccccc3S2(=O)=O)C(C)(C)c2ccccc21 [I-SO, reference compound]")
603
>>> assay_value("C[n+]1ccc(/C=C/C=C/C2=C([O-])c3ccccc3S2(=O)=O)cc1 [P-SO(4)]")
656
>>> assay_value("C[n+]1ccc(/C=C/C2=C([O-])c3ccccc3S2(=O)=O)cc1 [P-SO(2)]")
546
>>> assay_value("Cn1c([O-])c(/C=C/C=C/c2cc[n+]3c(c2)C(C)(C)c2ccccc2-3)c(=O)n(C)c1=O [AI-BA]")
670
>>> assay_value("CC1(C)c2ccccc2-[n+]2ccc(/C=C/C3=C([O-])c4ccccc4S3(=O)=O)cc21 [AI-SO(2)]")
577
